Data provenance: the supplement of paper PMC8728848

TESTED ON: Neu5Ac(a2-3)Gal(b1-3)[Fuc(a1-4)]GlcNAc
MEASUREMENT DESCRIPTION: glycan array binding signal (z-score within array); higher = stronger binding
STATED CONDITIONS: glycan notation: IUPAC condensed, linker removed
This excerpt belongs to a sample that is enriched for the strongest signals.
Measured glycan array binding signal (z-score) of individual entries
// response body must contain only the number

{"columns": ["BINDER", "ASSAY RESULT"],
 "data": [
  ["LecRKVI.2 (protein) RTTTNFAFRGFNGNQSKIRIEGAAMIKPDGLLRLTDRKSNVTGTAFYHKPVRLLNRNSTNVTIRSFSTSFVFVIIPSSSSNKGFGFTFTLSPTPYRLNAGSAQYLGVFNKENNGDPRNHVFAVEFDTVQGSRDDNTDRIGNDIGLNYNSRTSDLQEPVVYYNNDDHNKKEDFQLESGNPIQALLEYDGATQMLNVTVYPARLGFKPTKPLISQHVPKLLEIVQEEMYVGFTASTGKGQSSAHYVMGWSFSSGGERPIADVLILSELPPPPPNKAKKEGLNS", -0.318]
]}

Lookup result for CREG (Mus musculus), O88668 (protein) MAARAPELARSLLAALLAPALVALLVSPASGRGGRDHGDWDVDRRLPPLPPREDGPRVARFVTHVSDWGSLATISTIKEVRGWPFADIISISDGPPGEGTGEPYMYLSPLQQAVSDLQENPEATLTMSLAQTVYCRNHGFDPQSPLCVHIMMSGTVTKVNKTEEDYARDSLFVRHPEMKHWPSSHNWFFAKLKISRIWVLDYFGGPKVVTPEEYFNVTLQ ; measured glycan array binding signal (z-score): -0.737

Lookup result for CLEC9a (Mus musculus), Q8BRU4 (protein) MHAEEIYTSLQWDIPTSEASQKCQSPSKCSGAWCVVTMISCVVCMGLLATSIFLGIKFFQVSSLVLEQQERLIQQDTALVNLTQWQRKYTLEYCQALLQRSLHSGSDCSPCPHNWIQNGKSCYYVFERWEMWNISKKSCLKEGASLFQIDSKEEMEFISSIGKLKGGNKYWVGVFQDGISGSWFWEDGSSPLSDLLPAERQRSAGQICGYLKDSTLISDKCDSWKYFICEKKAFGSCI ; measured glycan array binding signal (z-score): -0.871

Lookup result for Mermaid2 (Stilbonema majum) (protein) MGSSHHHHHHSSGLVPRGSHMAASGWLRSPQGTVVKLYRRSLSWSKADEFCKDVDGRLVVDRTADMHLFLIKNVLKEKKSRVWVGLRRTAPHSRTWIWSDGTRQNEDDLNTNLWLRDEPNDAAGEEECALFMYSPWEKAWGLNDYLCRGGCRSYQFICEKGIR ; measured glycan array binding signal (z-score): -0.173

Lookup result for Ovorubin (Pomacea canaliculata), J7I2T6 (protein) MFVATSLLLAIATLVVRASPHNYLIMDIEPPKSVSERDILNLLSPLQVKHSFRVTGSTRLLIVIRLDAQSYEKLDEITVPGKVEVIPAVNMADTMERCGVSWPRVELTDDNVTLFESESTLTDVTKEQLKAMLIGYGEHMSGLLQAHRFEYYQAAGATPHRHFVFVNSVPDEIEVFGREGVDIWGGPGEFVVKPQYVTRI ; measured glycan array binding signal (z-score): -0.148
